Give Ligand-pharmacophore element distance, pharmacophore element C2 for every item shown.
Tgt: UniProt O00187
Measurement Protocol: MASP-2 co-crystallization, X-ray crystallography and structure analysis (H-bonds, van der Waals contacts)
Condition Summary: Table A4-1; element C2

// sample C[C@H](NC(=O)[C@H]1C[C@@H](c2ccccc2)CCN1)C(=O)NCc1cc(Cl)ccc1O.Cl [1078_10] , its Ligand-pharmacophore element distance, pharmacophore element C2 was 0.49

Lookup result for C[C@H](NC(=O)[C@H]1C[C@@H](c2ccccc2)CCN1)C(=O)NCc1cc(Cl)ccc1O.Cl [1078_13] ; measured Ligand-pharmacophore element distance, pharmacophore element C2: 0.58

Entry under test: C[C@H](NC(=O)[C@H]1C[C@H](c2ccccc2)CN1)C(=O)NCc1ccc2c(N)nccc2c1 [compound 1090] . Its Ligand-pharmacophore element distance, pharmacophore element C2 was 0

Data point: Cc1nc(N)ccc1CNC(=O)C(C)NC(=O)C1CC(c2cccc3ccccc23)CCN1.Cl.Cl (stereo not shown) [1297_6] ; Ligand-pharmacophore element distance, pharmacophore element C2 = 0.33

###

Tgt: MASP-2 CCP2-SP (Homo sapiens (Human))
Measurement Protocol: MASP-2 co-crystallization, X-ray crystallography and structure analysis (H-bonds, van der Waals contacts)
Condition Summary: Table A7-1; between pharmacophore elements of the bound compound
Counter-ions that a name gives are not always drawn.
For each record, write down the corresponding Pharmacophore torsion angle a(H4, O1, O2, H3).
Give only the figure.

Pharmacophore torsion angle a(H4, O1, O2, H3) in this record for N=C(N)c1ccc(CNC(=O)[C@@H]2CCN2C(=O)[C@H](NCC(=O)O)C2Cc3ccccc3C2)cc1 [compound 1129] : 104.70

Entry Cc1nc(N)ccc1CNC(=O)[C@H](C)NC(=O)[C@H]1C[C@@H](c2ccccc2)CCN1CCC(=O)O [compound 1411, Trifluoroacetate salt] , Pharmacophore torsion angle a(H4, O1, O2, H3) reported as 55.16

The compound listed as Cc1nc(N)ccc1CNC(=O)[C@H](C)NC(=O)[C@H]1C[C@H](Cc2cccc(Cl)c2)CN1.Cl.Cl [1328_2] shows Pharmacophore torsion angle a(H4, O1, O2, H3) equal to 51.26

// Cc1nc(N)ccc1CNC(=O)[C@H](C)NC(=O)[C@H]1C[C@@H](c2cccc3ccccc23)CCN1.Cl.Cl [1297_2] : Pharmacophore torsion angle a(H4, O1, O2, H3) value = 51.75

###

Tgt: MASP-2 CCP2-SP (Homo sapiens (Human))
Measurement Protocol: MASP-2 co-crystallization, X-ray crystallography and structure analysis (H-bonds, van der Waals contacts)
Condition Summary: Table A2-12
Measure Name: van der Waals contact distance, TRP 655 CA to compound atom
// return a plain number; no unit text

Reported van der Waals contact distance, TRP 655 CA to compound atom for Cc1nc(N)ccc1CNC(=O)[C@H](C)NC(=O)[C@H]1C[C@@H](c2cccc3ccccc23)CCN1 was 3.49

In plain terms, C[C@H](NC(=O)[C@H]1C[C@@H](c2ccccc2)CCN1)C(=O)NCc1ccc(N)nc1 (stereo in doubt) has a documented van der Waals contact distance, TRP 655 CA to compound atom of 3.68

What the record says about Cc1nc(N)ccc1CNC(=O)[C@H](C)NC(=O)[C@H]1C[C@@H](Cc2ccccc2)CCN1 : van der Waals contact distance, TRP 655 CA to compound atom is 3.3

What the record says about N=C(N)c1ccc(CNC(=O)[C@@H]2CCN2C(=O)[C@H]2Cc3ccccc3CN2)cc1 : van der Waals contact distance, TRP 655 CA to compound atom is 3.42

###

Tgt: MASP-2 CCP2-SP (Homo sapiens (Human), UniProt O00187)
Sequence (O00187 445-686): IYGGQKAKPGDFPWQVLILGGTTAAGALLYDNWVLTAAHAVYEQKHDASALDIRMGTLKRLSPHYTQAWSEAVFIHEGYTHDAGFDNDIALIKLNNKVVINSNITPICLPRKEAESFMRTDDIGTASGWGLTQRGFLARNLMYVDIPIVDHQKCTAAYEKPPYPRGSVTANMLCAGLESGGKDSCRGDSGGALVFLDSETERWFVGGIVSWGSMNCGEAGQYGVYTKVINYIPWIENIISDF
Sequence (O00187 364-432 partner): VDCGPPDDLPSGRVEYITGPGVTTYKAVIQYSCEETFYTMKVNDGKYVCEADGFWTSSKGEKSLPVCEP
Measurement Protocol: MASP-2 co-crystallization, X-ray crystallography and structure analysis (H-bonds, van der Waals contacts)
Condition Summary: Table A7-1; between pharmacophore elements of the bound compound
Counter-ions that a name gives are not always drawn.
Measure Name: Pharmacophore torsion angle a(H4, O1, O2, N2)
Give the figure by itself; no unit, no explanation.

Data point: Cc1nc(N)ccc1CNC(=O)[C@H](C)NC(=O)[C@H]1C[C@@H](c2ccccc2)CCN1C ; Pharmacophore torsion angle a(H4, O1, O2, N2) = 141.99

Short answer for Cc1nc(N)ccc1CNC(=O)[C@H](C)NC(=O)[C@H]1C[C@H](Cc2cccc(Cl)c2)CN1.Cl.Cl [1328_1] : Pharmacophore torsion angle a(H4, O1, O2, N2) was 136.65

Memo: Cc1nc(N)ccc1CNC(=O)[C@H](C)NC(=O)[C@H]1C[C@@H](c2cccc3ccccc23)CCN1.Cl.Cl [1297_2] , reported Pharmacophore torsion angle a(H4, O1, O2, N2): 141.21

Documented Pharmacophore torsion angle a(H4, O1, O2, N2) of Cc1nc(N)ccc1CNC(=O)C(C)NC(=O)C1CC(c2cccc3ccccc23)CCN1.Cl.Cl (stereo not shown) [1297_6] : 150.19

Pharmacophore torsion angle a(H4, O1, O2, N2) for C[C@H](NC(=O)[C@H](N)CCc1cccc(Cl)c1)C(=O)NCc1ccc(C(=N)N)cc1 is 121.47

Form: compound = Cc1cccc([C@H]2CN[C@@H](C(=O)N[C@@H](C)C(=O)NCc3ccc(N)nc3C)C2)c1 [compound 1257, Dihydrochloride] ; Pharmacophore torsion angle a(H4, O1, O2, N2) = 132.94

Entry C[C@H](NC(=O)[C@H]1C[C@@H](c2ccccc2)CCN1)C(=O)NCc1cc(Cl)ccc1O.Cl [1078_16] ; Pharmacophore torsion angle a(H4, O1, O2, N2) = −111.94

###

Tgt: MASP-2 CCP2-SP (Homo sapiens (Human), UniProt O00187)
Measurement Protocol: MASP-2 co-crystallization, X-ray crystallography and structure analysis (H-bonds, van der Waals contacts)
Condition Summary: Table A6-1 pharmacophore angle; Methyl-amino-pyridine compounds
Where a name gives a salt, the structure may show the parent alone.
Assign a(N1, CA1, O1) b) to each entry below.
// return just the number, without any unit appended

Recorded a(N1, CA1, O1) b) (compound Cc1nc(N)ccc1CNC(=O)[C@H](C)NC(=O)[C@H]1C[C@@H](c2ccccc2)CCN1 [compound 1253, Dihydrochloride] ): 174.19

For reference, reported a(N1, CA1, O1) b) for Cc1nc(N)ccc1CNC(=O)[C@H](C)NC(=O)[C@H]1C[C@@H](c2ccccc2)CCN1C stands at 173.13

Entry C[C@H](NC(=O)[C@H](N)CCc1ccccc1)C(=O)NCc1ccc(N)nc1.Cl.Cl [1007_2] ; a(N1, CA1, O1) b) = 174.22

a(N1, CA1, O1) b) for Cc1nc(N)ccc1CNC(=O)[C@H](C)NC(=O)[C@H]1C[C@@H](c2cccc3ccccc23)CCN1.Cl.Cl [1297_2] is 174.54

a(N1, CA1, O1) b) reported for this compound Cc1cccc([C@H]2CN[C@@H](C(=O)N[C@@H](C)C(=O)NCc3ccc(N)nc3C)C2)c1 [compound 1257, Dihydrochloride] : 174.64

Briefly, a(N1, CA1, O1) b) measured for Cc1nc(N)ccc1CNC(=O)[C@H](C)NC(=O)[C@H]1C[C@@H](Cc2ccccc2)CCN1 : 173.73

In plain terms, Cc1nc(N)ccc1CNC(=O)[C@H](C)NC(=O)[C@H]1C[C@H](Cc2ccc(-c3ccccc3)cc2)CN1 has a documented a(N1, CA1, O1) b) of 173.60

Documented a(N1, CA1, O1) b) of Cc1nc(N)ccc1CNC(=O)[C@H](C)NC(=O)[C@H]1C[C@H](Cc2ccccc2-c2ccccc2)CN1 [compound 1373, Di-trifluoroacetate salt] : 174.08

The reported a(N1, CA1, O1) b) of the compound Cc1nc(N)ccc1CNC(=O)[C@H](C)NC(=O)[C@H]1C[C@@H](c2ccccc2)CCN1CCC(=O)O [compound 1411, Trifluoroacetate salt] was 173.43

Data point: Cc1nc(N)ccc1CNC(=O)[C@H](C)NC(=O)[C@H]1C[C@H](Cc2cccc(Cl)c2)CN1.Cl.Cl [1328_1] ; a(N1, CA1, O1) b) = 175.41

The recorded a(N1, CA1, O1) b) for entry Cc1nc(N)ccc1CNC(=O)[C@H](C)NC(=O)[C@H]1C[C@@H](c2cccc3ccccc23)CCN1.Cl.Cl [1297_5] equals 174.11

Kindly note the recorded a(N1, CA1, O1) b) for C[C@H](NC(=O)[C@H](N)CCc1ccccc1)C(=O)NCc1ccc(N)nc1.Cl.Cl [1007_1] , which is 174.46

Briefly, a(N1, CA1, O1) b) measured for Cc1nc(N)ccc1CNC(=O)C(C)NC(=O)C1CC(c2cccc3ccccc23)CCN1.Cl.Cl (stereo not drawn) [1297_1] : 174.57

Data point: Cc1nc(N)ccc1CNC(=O)[C@H](C)NC(=O)[C@H]1C[C@H](Cc2ccccc2)CN1 ; a(N1, CA1, O1) b) = 173.92

Data point: Cc1nc(N)ccc1CNC(=O)[C@H](C)NC(=O)[C@H]1C[C@H](Cc2cccc(Cl)c2)CN1.Cl.Cl [1328_2] ; a(N1, CA1, O1) b) = 173.89
